biological target: human muscarinic M1 receptor (Homo sapiens); test: Alphascreen Surefire phospho-ERK1/2 functional assay, M1; format: cell-based; conditions: CHO, read-out: % Emax cf. ACh (M1), CHO cells stably expressing human M1; phospho-ERK1/2; relative to ACh
Sequence (P11229 whole entry): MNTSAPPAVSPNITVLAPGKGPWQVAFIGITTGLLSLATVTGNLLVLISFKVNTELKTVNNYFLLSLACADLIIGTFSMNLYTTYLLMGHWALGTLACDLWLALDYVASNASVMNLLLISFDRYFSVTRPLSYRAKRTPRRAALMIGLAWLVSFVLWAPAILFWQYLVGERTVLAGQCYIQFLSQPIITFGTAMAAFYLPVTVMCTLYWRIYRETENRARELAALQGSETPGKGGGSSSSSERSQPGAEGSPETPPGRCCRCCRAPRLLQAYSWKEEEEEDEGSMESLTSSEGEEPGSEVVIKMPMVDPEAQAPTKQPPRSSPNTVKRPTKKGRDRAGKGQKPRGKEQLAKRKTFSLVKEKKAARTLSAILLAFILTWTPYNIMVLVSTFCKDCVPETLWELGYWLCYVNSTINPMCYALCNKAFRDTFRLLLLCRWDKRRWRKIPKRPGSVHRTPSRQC
Please provide measured Emax for the entries that follow.
Give the value in % but do not write % after it.

For CCOC(=O)N1CCC2(CC(N3CCC(N(C(=O)CC)C4CC4)CC3)C2)C1 (single isomer, unassigned) [2-5 Isomer 2] , write its Emax. 57

For CCOC(=O)N1CCC2(CC(N3CCC(N(CCOC)CC(F)(F)F)CC3)C2)C1 (single isomer, unassigned) [2-52 Isomer 2] , write its Emax. 93

For CCOC(=O)N1CCC2(CC(N3CCC(N(Cc4ccccc4)C(C)=O)CC3)C2)C1 (single isomer, unassigned) [2-35 Isomer 2] , write its Emax. 85

For CCOC(=O)N1CCC2(CC(N3CCC(OC(C)c4ccccc4)CC3)C2)C1 (single isomer, unassigned) [2-66 Isomer 2] , write its Emax. 59

For [2H]C([2H])(C)OC(=O)N1CCC2(CC(N3CCC(N(CC)C(C)=O)CC3)C2)C1 (single isomer, unassigned) [2-38 Isomer 2] , write its Emax. 76

For CCOC(=O)N1CCC2(CC(N3CCC(N(CC(C)(F)F)C(C)=O)CC3)C2)C1 (single isomer, unassigned) [2-27 Isomer 2] , write its Emax. 108

For CCOC(=O)N1CCC2(CC(N3CCC(N(CC(F)(F)F)C4CC4)CC3)C2)C1 (single isomer, unassigned) [2-48 Isomer 2] , write its Emax. 117

For CCN(C(C)=O)C1CCN(C2CCC3(C2)CN(C(=O)OC)C3)CC1 (single isomer, unassigned) [3-2 Isomer 2] , write its Emax. 42

For CCOC(=O)N1CCC2(CC(N3CCC(SCc4ccccc4)CC3)C2)C1 (single isomer, unassigned) [2-67 Isomer 2] , write its Emax. 19

For CCOC(=O)N1CCC2(CC(N3CCC(N(C(C)=O)C4CC4)CC3)C2)C1 (single isomer, unassigned) [2-3 Isomer 1] , write its Emax. 78

For CCOC(=O)N1CCC2(CC(N3CCC(N(CCO)C4CCC4)CC3)C2)C1 (single isomer, unassigned) [2-50 Isomer 2] , write its Emax. 17

For CCOC(=O)N1CCC2(CC(N3CCC(N(Cc4cnco4)C(C)=O)CC3)C2)C1 (single isomer, unassigned) [2-36 Isomer 2] , write its Emax. 45

For CCOC(=O)N1CCC2(CC(N3CCC(N(CC)CC(F)(F)F)CC3)C2)C1 (single isomer, unassigned) [2-7 Isomer 2] , write its Emax. 120

For COC(=O)N1CCC2(CC(N3CCC(N(C(C)=O)C4CCC4)CC3)C2)C1 (single isomer, unassigned) [2-15 Isomer 2] , write its Emax. 117

For CCOC(=O)N1CCC2(CC(N3CCC(N(CC(=O)OC)C4CC4)CC3)C2)C1 (single isomer, unassigned) [2-9 Isomer 2] , write its Emax. 14

For CCOC(=O)N1CCC2(CC(N3CCC(N(Cc4ccon4)C4CC4)CC3)C2)C1 (single isomer, unassigned) [2-10 Isomer 2] , write its Emax. 42

For CCOC(=O)N1CCC2(CC(N3CCC(N(C(C)=O)C4CC(F)(F)C4)CC3)C2)C1 (single isomer, unassigned) [2-28 Isomer 2] , write its Emax. 124

For CCOC(=O)N1CCC2(CC(N3CCC(C(C)N(C(=O)CC)C4CC4)CC3)C2)C1 (single isomer, unassigned) [2-14 Isomer 2] , write its Emax. 47

For CCOC(=O)N1CCC2(CC(N3CCC(N(CC)C(=O)OC)CC3)C2)C1 (single isomer, unassigned) [2-39 Isomer 2] , write its Emax. 39

For CCOC(=O)N1CCC2(CC(N3CCC(N(CC)OC)CC3)C2)C1 (single isomer, unassigned) [2-57 Isomer 2] , write its Emax. 40

For CCOC(=O)N1CCC2(CC(N3CCC(N(CC)CCC#N)CC3)C2)C1 (single isomer, unassigned) [2-55 Isomer 2] , write its Emax. 161

For CCOC(=O)N1CCC2(CC(N3CCC(N(OC)C(C)=O)CC3)C2)C1 (single isomer, unassigned) [2-32 Isomer 2] , write its Emax. 82

For CCOC(=O)N1CCC2(CC(N3CCC(C(C)(C)N(CC)C(C)=O)CC3)C2)C1 (single isomer, unassigned) [2-64 Isomer 2] , write its Emax. 46

For CCOC(=O)N1CCC2(CC(N3CCC(N(CCF)Cc4cnco4)CC3)C2)C1 (single isomer, unassigned) [2-61 Isomer 2] , write its Emax. 21

For CCOC(=O)N1CCC2(CC(N3CCC(N(Cc4ccccc4)CC(F)(F)F)CC3)C2)C1 (single isomer, unassigned) [2-59 Isomer 2] , write its Emax. 9

For CCOC(=O)N1CC2(CCC(N3CCC(N(CC)C(C)=O)CC3)C2)C1 (single isomer, unassigned) [3-3 Isomer 2] , write its Emax. 18
